Data provenance is patent US12195506B2.

Molecular target: HLA-A*01:01 (Homo sapiens, UniProt P04439, A114D/A174V/A182V/D101N/D185E/E176A/E190D/L180R/Q94H/R68K/S129P/T187R/V100A/V91M/W191G)
Assay: MHC binding assay: UV-ligand exchange, ELISA of stabilized MHC complexes (peptide exchange yield)
Settings: binding to HLA-A*01:01, UV-ligand exchange
PARAMETER: Peptide exchange

Check out these entries, answers already filled in.
> print(dat)
                                  substance         parameter           result
1  207 (LLEGEDAHLTQY; listed as Homo sapiens) [compound 207]  Peptide exchange  +++ (>50 = +++)
2  217 (LMDEGAVLTL; listed as Homo sapiens) [compound 217]  Peptide exchange   ++ (>20% = ++)
3  344 (AVNALQSVY; listed as Homo sapiens) [compound 344]  Peptide exchange   ++ (>20% = ++)
4  286 (ATDMEGNLNY; listed as Homo sapiens) [compound 286]  Peptide exchange  +++ (>50 = +++)
5  54 (EVDIHTIHY; listed as Homo sapiens) [compound 54]  Peptide exchange  +++ (>50 = +++)

The reported Peptide exchange of the substance 300 (VSINPNSGDIY; listed as Homo sapiens) [compound 300] was +++ (>50 = +++)

The reported Peptide exchange of the substance 102 (STIRGELFF; listed as Homo sapiens) [compound 102] was ++ (>20% = ++)
